# Assay System: Cytochrome P450 2C9 (Homo sapiens) (UniProt P11712)
# Sequence (P11712 whole entry, looked up): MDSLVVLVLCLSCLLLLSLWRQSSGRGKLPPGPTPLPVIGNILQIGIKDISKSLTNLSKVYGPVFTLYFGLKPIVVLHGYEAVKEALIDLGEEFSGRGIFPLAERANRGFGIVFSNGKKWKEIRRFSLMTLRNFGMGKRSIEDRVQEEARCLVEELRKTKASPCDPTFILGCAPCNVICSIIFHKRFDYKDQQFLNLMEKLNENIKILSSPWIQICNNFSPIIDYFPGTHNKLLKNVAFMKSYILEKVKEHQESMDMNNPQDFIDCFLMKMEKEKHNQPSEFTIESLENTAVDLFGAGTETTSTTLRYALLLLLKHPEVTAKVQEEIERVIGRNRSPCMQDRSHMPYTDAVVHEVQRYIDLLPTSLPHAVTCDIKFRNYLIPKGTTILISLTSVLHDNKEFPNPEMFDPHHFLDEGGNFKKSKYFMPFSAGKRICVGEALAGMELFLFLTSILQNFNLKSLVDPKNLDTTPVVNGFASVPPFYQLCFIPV
# Test: blockers of cytochrome P450 2C9 activity – biochemical, luminescence, ADME assay, primary screen (AID 777)
# Assay Setup: CYP2C9 Supersomes, luciferin-H conversion, at 5 µM, stronger effect = higher value
Among all 96,000 compounds or so, about 19,000 (20%) were called active. Not all results are given here.
Would you please tag the item MET when its inhibition is 40% or above, and NOT MET when it is below?

*Q* Say whether Cc1noc(C)c1CSc1nnc2ccc3ccccc3n12 shows inhibition of 40% or more.
*A* NOT MET

*Q* API: above_or_equal(metric=inhibition, cutoff=40%) for item COc1ccc(-c2nnn(Cc3nc(N)nc(N4CCCCC4)n3)n2)cc1
*A* NOT MET

*Q* inhibition >= 40% for CS(=O)(=O)N(CC(O)Cn1c2ccccc2c2ccccc21)c1cccc2ccccc12 (stereo unspecified) ?
*A* MET

*Q* Could you please find out whether CCOc1c2ccc(C(=O)NCc3ccc4c(c3)OCO4)cc2nn1C has inhibition that meets 40% or exceeds it?
*A* MET

*Q* Determine whether this molecule has inhibition no lower than 40%: O=S(=O)(NCC1CCCO1)c1ccc2ccccc2c1 (stereo unspecified)
*A* NOT MET

*Q* inhibition >= 40% for Cc1cccc(N(CC(=O)N=Nc2c(O)[nH]c3ccccc23)S(C)(=O)=O)c1C ?
*A* MET

*Q* Is reported inhibition greater than or equal to 40% here: Cc1ccc(S(=O)(=O)N2CCN(S(=O)(=O)N3CCOCC3)CC2)cc1
*A* NOT MET

*Q* Assess whether reported inhibition for CCOC(=O)c1ccc(COC(=O)CCc2nc(-c3ccccc3)c(-c3ccccc3)o2)cc1 sits at 40% or higher.
*A* MET

*Q* Identify whether the reported inhibition of the following molecule is 40% or greater: CCOC(=O)c1c(CN2CCOCC2)n(-c2ccccc2)c2ccc(O)cc12
*A* NOT MET

*Q* # check: inhibition of O=S(=O)(O)c1nc2ccccc2n1Cc1ccc(Cl)cc1 is greater than or equal to 40%
*A* MET

*Q* Record OC(COCCC12CC3CC(CC(C3)C1)C2)CN1CCCCC1 (stereo unspecified) ; criterion: inhibition no lower than 40%. Met?
*A* NOT MET

---

# Assay System: Cytochrome P450 2C9 (Homo sapiens) (UniProt P11712)
# Test: blockers of cytochrome P450 2C9 activity – biochemical, luminescence, ADME assay, primary screen (AID 777)
# Assay Setup: CYP2C9 Supersomes, luciferin-H conversion, at 5 µM, stronger effect = higher value
Screen size: about 96,000 compounds; about 19,000 (20%) were called active. These entries were drawn from the full list.
Quantity Measured: inhibition

*Q* Field request: inhibition | item: O=C(NC1CCCCC1)C1CC(=O)N(CCc2ccccc2)C1 (stereo not given)
*A* -4.8% (inactive)

*Q* Consider the compound shown here: Cc1ccc(CCN2CC(C(=O)O)CC2=O)cc1 (stereo not given) What is its recorded inhibition?
*A* 53.7% (active)

*Q* What measured inhibition goes with CCc1ccc(CNC(=O)C2CC(=O)N(CCc3ccc(C)cc3)C2)cc1 (stereo not given) ?
*A* 54.1% (active)

*Q* Report inhibition for COc1ccc(Cn2c(=O)sc3ccccc32)cc1OC please.
*A* 29.2% (inactive)

*Q* Give its inhibition value. Item: O=C(CN1C(=O)C2C3C=CC(C3)C2C1=O)NCC1COc2ccccc2O1 (stereo not given)
*A* -1.1% (inactive)

*Q* May I ask what inhibition has been recorded for CCOC(=O)C1=C(C)NC(C)=C(C(=O)OCC)C1C1=COCCO1 ?
*A* 77.4% (active)

*Q* What inhibition value was documented for this compound, Cc1cccc(NC(=O)c2sc3nc4c(c(-c5ccco5)c3c2N)CCC4)c1 ?
*A* 17.9% (inactive)

*Q* # input compound: Clc1ccc(Nc2nc(-c3cccs3)cs2)nc1 ; wanted: its inhibition
*A* 11.8% (inactive)

*Q* Record request: inhibition value, item CCOC(=O)C1=C(C)NC(C)=C(C(=O)OCC)C1c1ccccn1
*A* 94.2% (active)

*Q* Requested read-out: inhibition. Entry: CCC(=O)N(Cc1ccccc1)c1ccccn1
*A* -7.1% (inactive)

*Q* Param item = CSC1=N/C(=C\C=C\c2cccs2)C(=O)S1 ; retrieve measured inhibition.
*A* -10.5% (inactive)

*Q* Given the entry Cn1cccc1C1(C(F)(F)F)NCCNC1=O (stereo not given) , report its measured inhibition.
*A* 72% (active)

*Q* May I ask what inhibition has been recorded for Cn1cc(S(=O)(=O)N2CCC(Cc3ccccc3)CC2)c(=O)n(C)c1=O ?
*A* 23.7% (inactive)

*Q* Can you look up the measured inhibition of CC1=NN(C(C)C)C(=O)C1 for me?
*A* 12.8% (inactive)

*Q* Bench note: what inhibition did O=C(Cn1cnc2ccccc2c1=O)NCC1COc2ccccc2O1 (stereo not given) show?
*A* 61.2% (active)

*Q* Tell me the measured inhibition of COc1ccc(CCn2c(-c3ccco3)nc3nc4ccccc4nc32)cc1OC , please.
*A* 34.7% (inactive)

*Q* inhibition lookup needed for O=C(Cn1nc(Cc2cccnc2)c2ccccc2c1=O)NCC1CCCO1 (stereo not given) , thanks.
*A* 21.3% (inactive)

*Q* For the compound CCNc1nc(NCC)nc(N(C)n2cnnc2)n1 , what inhibition is on record?
*A* 15.7% (inactive)

*Q* Record request: inhibition value, item COC(=O)c1cc(NC(=O)CN2CCC(C(N)=O)(N3CCCCC3)CC2)cc(C(=O)OC)c1
*A* 13.2% (inactive)

*Q* Looking for the measured inhibition of CCC(C)Sc1nc(C)nc2c1c(=O)n(C)c(=O)n2C (stereo not given) , can you help?
*A* 8.4% (inactive)

*Q* Please report the recorded inhibition for Cc1ccc(CNC(=O)C2CC(=O)N(C3CCCCCCC3)C2)cc1 (stereo not given) .
*A* -1.3% (inactive)

*Q* # query: inhibition of entry CCCNC(=O)NCc1ccc(N2CCCC2=O)cc1
*A* 17.2% (inactive)

*Q* What does the data say about its inhibition? Entry: CCCSC(=S)NC1CCS(=O)(=O)C1 (stereo not given)
*A* 19.1% (inactive)

*Q* Would you kindly share the measured inhibition for CC(NC(=O)c1cc(-c2ccccc2)on1)c1ccccc1 (stereo not given) ?
*A* -23.7% (inactive)

*Q* Which inhibition value is on record for c1ccc(CCN2CN=C(Nc3nc4ccccc4o3)NC2)cc1 ?
*A* 6.5% (inactive)

---

# Assay System: Cytochrome P450 2C9 (Homo sapiens)
# Test: blockers of cytochrome P450 2C9 activity – biochemical, luminescence, ADME assay, primary screen (AID 777)
# Assay Setup: CYP2C9 Supersomes, luciferin-H conversion, at 5 µM, stronger effect = higher value
Screen size: about 96,000 compounds; about 19,000 (20%) were called active. Only a sample is shown.
Can you tell me inhibition for the items I'm about to list?
The answer is to be given in %; state only the numeric part.

*Q* Which inhibition reading was recorded for the compound CCC(=O)N1CCN=C1SCc1ccc(F)cc1 ?
*A* 11

*Q* Which inhibition value belongs to CCOC(=O)N1CC=C2C(C#N)=C(N)C(C#N)(C#N)[C@H](c3cccs3)[C@H]2C1 ?
*A* 11.7

*Q* # get_value(readout='inhibition', item= O=C(c1ccco1)N1CCN=C1SCc1cccc(Cl)c1 )
*A* 34.4

*Q* Look at this compound and give its reported inhibition. CC1(C)NC(=O)N(CCOc2cccc(Oc3ccccc3)c2)C1=O
*A* 62.5

*Q* For the compound shown here, O=C(NCCc1ccccn1)c1cc(C(=O)C2CCCCC2)c[nH]1 , give the reported inhibition.
*A* 10.3

*Q* If you can, please state the reported inhibition value of CCN1CC=C2C(C#N)=C(N)C(C#N)(C#N)[C@H](c3ccoc3)[C@H]2C1 .
*A* -2.3

*Q* I'd like to know its inhibition. The compound in question is c1ccc(-c2nccc(-c3ccc(-n4cnc5ccccc54)cc3)n2)nc1
*A* 22.6

*Q* Consider the compound COC(=O)CN1C(=O)C(O)=C(C(C)=O)C1c1ccc([N+](=O)[O-])cc1 (centres undefined) and give its measured inhibition.
*A* 3.5

*Q* Value lookup for inhibition; key = CC(CO)N1CCS(=O)(=O)CC1 (centres undefined)
*A* -5.6

*Q* Which inhibition value is on record for CCSC(C)CC1C/C(=N/O)c2c(C)noc2C1 (centres undefined) ?
*A* 61.3

*Q* What value of measured inhibition is listed for COc1ccc(-c2nnco2)cc1OC ?
*A* -14.9

*Q* I have this compound here, O=C1c2ccccc2C(O)N1Cc1ccccc1Cl (centres undefined) , and I need its recorded inhibition.
*A* -6.9

*Q* Report inhibition for O=C(Nc1ccc2nc3n(c(=O)c2c1)CCCCC3)c1ccccc1Cl please.
*A* 41.7

*Q* Which inhibition value is on record for N/C(=N\OC(=O)CCC1CCCCC1)c1ccccn1 ?
*A* 0.9

*Q* I would be grateful if you could share the reported inhibition for CCc1cc(Br)ccc1NC(=O)C1CCCO1 (centres undefined) .
*A* -2.1

*Q* Entry under review: Cc1nn(CCOc2ccccc2)c(=O)n1-c1ccccc1F . Reported inhibition?
*A* -10

*Q* Please look up its inhibition: O=C(Nc1ccc(Br)cc1)C1CCC(=O)N1Cc1ccccc1Cl (centres undefined)
*A* 89.5

*Q* Which inhibition reading was recorded for the compound Cc1oc(-c2ccccc2F)nc1CS(=O)(=O)CC(=O)NCCCN(C)C1CCCCC1 ?
*A* -10.6

*Q* Which measured inhibition value corresponds to N#CC1=C(N)C(C#N)(C#N)[C@H](c2ccsc2)[C@H]2COCC=C12 ?
*A* 61.4

*Q* Name the reported inhibition value associated with the compound Cc1cccc2c(=O)n3c(nc12)CCCCC3
*A* 21

*Q* What does the data say about its inhibition? Entry: CC(Oc1ccc(F)cc1F)C(=O)/C=C/N(C)C (centres undefined)
*A* -6.9

*Q* Which measured inhibition value corresponds to Cc1nc2ccccc2c2oc(C(=O)NCCCN3CCC(C)CC3)cc12 ?
*A* 7.6

*Q* If you can, please state the reported inhibition value of CCOC(=O)Nc1ccc2c(c1)N(C(=O)CCN1CCN(CCO)CC1)c1ccccc1CC2 .
*A* -14

*Q* What value of inhibition has been reported for the following compound? Cc1ccc(OCC(=O)Nn2cnc3ccccc32)cc1
*A* 6.6

All values here come from PubChem BioAssay AID777.
